- target of assay: C. elegans Slo-1a (Caenorhabditis elegans, UniProt Q95V25)
- Sequence (Q95V25 whole entry): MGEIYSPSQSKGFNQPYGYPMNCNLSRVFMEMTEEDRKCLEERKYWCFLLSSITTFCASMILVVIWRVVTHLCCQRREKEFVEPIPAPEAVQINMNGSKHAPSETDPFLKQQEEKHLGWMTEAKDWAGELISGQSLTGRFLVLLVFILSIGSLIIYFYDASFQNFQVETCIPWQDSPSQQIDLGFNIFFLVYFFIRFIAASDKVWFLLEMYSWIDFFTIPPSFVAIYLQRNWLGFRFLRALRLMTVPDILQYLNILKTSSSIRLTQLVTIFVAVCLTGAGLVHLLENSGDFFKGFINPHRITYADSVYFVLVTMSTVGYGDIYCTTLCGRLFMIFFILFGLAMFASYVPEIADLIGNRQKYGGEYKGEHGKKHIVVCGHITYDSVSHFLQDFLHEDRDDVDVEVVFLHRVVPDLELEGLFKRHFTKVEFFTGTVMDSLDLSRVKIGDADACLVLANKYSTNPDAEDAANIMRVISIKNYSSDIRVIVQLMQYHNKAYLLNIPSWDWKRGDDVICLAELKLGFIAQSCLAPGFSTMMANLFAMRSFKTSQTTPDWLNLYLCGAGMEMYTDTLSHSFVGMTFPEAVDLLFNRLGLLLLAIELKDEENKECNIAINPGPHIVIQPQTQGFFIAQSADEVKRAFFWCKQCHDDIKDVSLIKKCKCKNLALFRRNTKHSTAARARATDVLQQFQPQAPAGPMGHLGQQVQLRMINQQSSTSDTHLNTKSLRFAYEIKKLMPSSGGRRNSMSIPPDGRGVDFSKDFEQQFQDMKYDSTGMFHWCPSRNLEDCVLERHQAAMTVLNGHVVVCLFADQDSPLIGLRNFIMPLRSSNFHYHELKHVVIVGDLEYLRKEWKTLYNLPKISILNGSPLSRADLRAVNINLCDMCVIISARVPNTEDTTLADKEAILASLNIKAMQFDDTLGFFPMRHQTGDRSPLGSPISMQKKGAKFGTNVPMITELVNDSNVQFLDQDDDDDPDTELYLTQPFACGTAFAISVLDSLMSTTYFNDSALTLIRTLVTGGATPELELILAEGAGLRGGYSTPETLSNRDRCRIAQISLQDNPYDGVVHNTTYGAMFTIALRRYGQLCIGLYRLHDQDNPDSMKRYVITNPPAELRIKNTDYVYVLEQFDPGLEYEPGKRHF
measured property: EC50 (nM)

> print(dat)
                            chemical.smiles  measured.property  measurement.units  result
1  Cn1c(C(=O)N[C@H]2CCc3ccccc32)nc2c(-c3cccc(Cl)c3Cl)ccnc21               EC50                 nM     501
2  CC(C)c1c(C(=O)N[C@H]2CCOc3ccccc32)sc2c(-c3ccc(F)c(F)c3)cccc12               EC50                 nM    50.1
3  O=C(N[C@H]1CCc2ccccc21)c1ccc2nc(-c3cccc(Cl)c3Cl)cnc2c1               EC50                 nM    31.6
4  CN(C)c1c(C(=O)N[C@H]2CCOc3ccccc32)sc2c(-c3cccc(Cl)c3Cl)cccc12               EC50                 nM      10
5  COc1c(C(=O)N[C@H]2CCOc3ccccc32)sc2c(-c3cccc(Cl)c3Cl)nccc12               EC50                 nM    25.1
6  CC(C)c1c(C(=O)N[C@H]2CCOc3ccccc32)c(=O)oc2c(-c3cc(Cl)cc(Cl)c3)cccc12               EC50                 nM    1.26
7  CC(C)n1c(C(=O)N[C@H]2CCOc3ccccc32)cc2c(-c3cc(Cl)nc(Cl)c3)cccc21               EC50                 nM     100

---

- System: Dirofilaria immitis microfilariae
- protocol text: In Vitro Assay 2: Dirofilaria immitis microfilariae (DIROIM L1) motility
- Assay type: cell-based
- cond: 72 h, read-out: EC50 ppm
# note: boundary value 0.04 µg/mL maps to not met; EC50 below it maps to met

> print(dat)
                                   molecule  class.assignment
1  CC(C)c1c(C(=O)N[C@H]2CCOc3ccccc32)sc2c(-c3cccc(Cl)c3)cccc12 [Example Compound S1-2]               met
2  O=C(N[C@H]1CCOc2ccccc21)c1ccc2c(-c3cccc(Cl)c3Cl)nccc2c1 [Example Compound S6-2]           not met
3  Cc1nn(-c2cc(Cl)cc(Cl)c2)c2ncc(C(=O)N[C@H]3CCOc4ccccc43)c(N(C)C)c12 [Example Compound S4-2]           not met
4  CN(C)c1c(C(=O)N[C@H]2CCOc3ccccc32)sc2c(-c3cccc(Cl)c3)cccc12 [Example Compound S1-6]           not met
5  O=C(N[C@H]1CCOc2ccccc21)c1ccc2nc(-c3cccc(C(F)(F)F)c3Cl)cnc2c1 [Example Compound S9-1]           not met
6  CN(C)c1c(C(=O)N[C@H]2CCOc3ccccc32)sc2c(-c3cccc(Cl)c3Cl)nccc12 [Example Compound S1-13]           not met

---

- target of assay: C. elegans Slo-1a (Caenorhabditis elegans)
pEC50: −log10 of the molar value.
Hi, to clarify the labels: fulfilled covers pEC50 from 7 upward, not fulfilled covers anything below 7.

> print(dat)
                                    compound  class.assignment
 1  CC(C)n1c(C(=O)N[C@H]2CCOc3ccccc32)cc2c(-c3cc(Cl)cc(Cl)c3Cl)cccc21         fulfilled
 2  CN(C)c1c(C(=O)N[C@H]2CCOc3ccccc32)sc2c(-c3ccc(F)c(F)c3)cccc12     not fulfilled
 3  CN(C)c1c(C(=O)N[C@H]2CCOc3ccccc32)cnc2c1cnn2-c1c(F)cccc1F     not fulfilled
 4  O=C(N[C@H]1CCOc2ccccc21)c1ccc2nc(-c3cccc(Cl)c3Cl)cnc2c1         fulfilled
 5  CC(C)c1c(C(=O)N[C@H]2CCc3ccccc32)ccc2c1nnn2-c1ccc(Cl)cc1     not fulfilled
 6  CN(C)c1c(C(=O)N[C@H]2CCOc3ccccc32)cnc2c1cnn2-c1cc(Cl)cc(Cl)c1     not fulfilled
 7  CC1=C(C(=O)N[C@H]2CCCc3ccccc32)C(C)c2cccc(-c3cc(F)cc(F)c3F)c2O1 (some centres unmarked)     not fulfilled
 8  O=C(N[C@H]1CCOc2ccccc21)c1ccc2c(-c3cccc(Cl)c3Cl)nccc2c1     not fulfilled
 9  CN(C)c1c(C(=O)N[C@H]2CCOc3ccccc32)sc2c(-c3cc(Cl)cc(Cl)c3)cccc12         fulfilled
10  O=C(N[C@H]1CCOc2ccccc21)c1cnc2c(ccc(=O)n2-c2cc(Cl)cc(Cl)c2)c1     not fulfilled
11  Cn1c(C(=O)N[C@H]2CCOc3ccccc32)nc2c(-c3cccc(Cl)c3Cl)ccnc21         fulfilled
